Numbers sourced from ChEMBL document CHEMBL3779797.

target: Ribosomal protein S6 kinase alpha-2 (Homo sapiens); test: Inhibition of N-terminal His6 tagged full-length human recombinant active RSK2 at 10 uM using S6 peptide after 20 mins by fluorescence assay
readout: inhibition (%)

# compound structure, system under test, inhibition, %
data = [
    ("O=C(Nc1ccc2c(c1)C(=O)N(CNc1ccc(N3CCOCC3)cc1)C2=O)c1ccccc1", "Ribosomal protein S6 kinase alpha-2 (Homo sapiens)", 103),
    ("COc1ccc(NCN2C(=O)c3ccc(NC(=O)Nc4ccccc4)cc3C2=O)cc1", "Ribosomal protein S6 kinase alpha-2 (Homo sapiens)", 34.8),
    ("COc1ccc(N(C)CN2C(=O)c3ccccc3C2=O)cc1", "Ribosomal protein S6 kinase alpha-2 (Homo sapiens)", 87),
    ("O=C1c2ccccc2C(=O)N1CNc1ccc(F)cc1", "Ribosomal protein S6 kinase alpha-2 (Homo sapiens)", 56.7),
    ("Cc1ccc(NCN2C(=O)c3ccccc3C2=O)cc1", "Ribosomal protein S6 kinase alpha-2 (Homo sapiens)", 54),
]

a. O=C1c2ccccc2C(=O)N1CNc1ccccc1
b. COc1ccc(N(CN2C(=O)c3ccccc3C2=O)C(C)=O)cc1
Task: Min inhibition? a | b State the label of the item chosen.
Output: b
(b: 17.2%, a: 43.6%)

P. O=C1c2ccccc2C(=O)N1CNc1ccc(OC(F)(F)F)cc1
Q. COc1ccc(NCN2C(=O)c3cccc(NC(=O)c4ccccc4)c3C2=O)cc1
R. CCOc1ccc(NCN2C(=O)c3ccc(NC(=O)c4ccccc4)cc3C2=O)cc1
Task: // ranking: key=inhibition, reverse=True Please list the labels according to the requested order.
Output: Q, R, P
(Q: 99.5%, R: 69.5%, P: 28.1%)

###

target: Ribosomal protein S6 kinase alpha-2 (Homo sapiens); assay: Inhibition of N-terminal His6 tagged full-length human recombinant active RSK2 at 10 uM using S6 peptide after 20 mins by fluorescence assay
readout: inhibition (%)

Guide cases for inhibition, answers given:
# compound, test result
rows = [
    ("CC(C)c1ccc(NCN2C(=O)c3ccccc3C2=O)cc1", 46.5),
    ("COc1ccc(NCN2C(=O)c3ccc(N)cc3C2=O)cc1", 109),
    ("CCN(CC)c1ccc(NCN2C(=O)c3ccccc3C2=O)c(C)c1", 81),
    ("O=C1c2ccccc2C(=O)N1CNc1ccc(O)cc1", 101),
    ("CCOc1ccc(NCN2C(=O)c3cccc(NC(=O)c4ccccc4)c3C2=O)cc1", 105),
]

I. CCOc1ccc(NCN2C(=O)c3ccccc3C2=O)cc1
II. O=C1c2ccccc2C(=O)N1CNc1ccc(Cl)cc1
III. CCc1ccc(NCN2C(=O)c3ccccc3C2=O)cc1
IV. Cc1ccc(NCN2C(=O)c3ccc([N+](=O)[O-])cc3C2=O)cc1
Task: Ranking field: inhibition; order: falling. Give the labels in the order requested.
Output: I, III, IV, II

###

target: Ribosomal protein S6 kinase alpha-2 (Homo sapiens); assay: Inhibition of N-terminal His6 tagged full-length human recombinant active RSK2 at 10 uM using S6 peptide after 20 mins by fluorescence assay
readout: inhibition (%)

# compound, test result
rows = [
    ("O=C1c2ccccc2C(=O)N1CNc1ccc(N2CCOCC2)cc1", 101),
    ("COc1ccc(NCN2C(=O)c3cccc(N)c3C2=O)cc1", 95.6),
    ("Cn1cc(C2=C(c3cn(CCCSC(=N)N)c4ccccc34)C(=O)NC2=O)c2ccccc21 [BISINDOLYLMALEIMIDE IX]", 98.2),
    ("COc1ccc(NCN2C(=O)c3ccccc3C2=O)cc1", 97.2),
    ("CCOc1ccc(NCN2C(=O)c3ccc([N+](=O)[O-])cc3C2=O)cc1", 87),
]
